Reported log10(OD450) values for a set of binders
Molecular target: T1, human MSLN-R3-his protein (human, UniProt Q13421 487-598)
T1 construct: Region 3 of human mesothelin, made in HEK293E cells, His-tagged; also called human MSLN-R3 protein; hMSLN-R3-his; not shown: His tag
T1 sequence (Q13421 495-606): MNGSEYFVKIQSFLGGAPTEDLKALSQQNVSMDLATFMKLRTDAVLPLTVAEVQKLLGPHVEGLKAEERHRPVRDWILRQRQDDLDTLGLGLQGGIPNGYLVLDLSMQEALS
Experiment: ELISA on coated MSLN-R3; antibody 10 nM
assay_metric: log10(OD450) (log10 of the value in OD450)

1. S009-F8-33.12 (antibody, human IgG1, kappa, V domains shown) VH: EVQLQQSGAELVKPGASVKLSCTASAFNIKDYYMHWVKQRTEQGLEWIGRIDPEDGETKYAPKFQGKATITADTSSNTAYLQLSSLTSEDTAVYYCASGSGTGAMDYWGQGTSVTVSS VL: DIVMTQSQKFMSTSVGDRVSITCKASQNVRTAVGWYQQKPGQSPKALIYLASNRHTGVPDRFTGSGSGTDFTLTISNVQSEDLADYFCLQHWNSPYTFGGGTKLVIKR; -1.30
2. S009-F8-36.12 (antibody, human IgG1, kappa, V domains shown) VH: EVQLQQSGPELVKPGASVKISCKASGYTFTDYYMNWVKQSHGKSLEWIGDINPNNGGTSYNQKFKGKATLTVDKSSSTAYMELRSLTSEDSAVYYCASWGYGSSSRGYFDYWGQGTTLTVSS VL: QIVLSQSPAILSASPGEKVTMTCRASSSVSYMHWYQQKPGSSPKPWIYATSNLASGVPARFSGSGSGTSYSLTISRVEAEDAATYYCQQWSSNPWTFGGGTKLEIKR; -0.85
3. Tab106 (YP218, hIgG1) (antibody, V domains shown, also called YP218 human IgG1 antibody) VH: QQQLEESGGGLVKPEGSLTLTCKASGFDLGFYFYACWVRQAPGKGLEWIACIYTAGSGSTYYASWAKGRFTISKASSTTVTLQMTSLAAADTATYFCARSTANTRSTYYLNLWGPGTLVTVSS VL: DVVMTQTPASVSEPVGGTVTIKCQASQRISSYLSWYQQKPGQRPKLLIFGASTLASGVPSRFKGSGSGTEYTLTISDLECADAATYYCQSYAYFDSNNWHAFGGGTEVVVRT; 0.26
4. S009-F8-22.23 (antibody, human IgG1, kappa, V domains shown) VH: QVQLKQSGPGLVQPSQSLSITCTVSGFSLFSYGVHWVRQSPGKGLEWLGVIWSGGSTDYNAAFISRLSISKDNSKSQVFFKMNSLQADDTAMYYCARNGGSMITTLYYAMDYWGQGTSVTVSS VL: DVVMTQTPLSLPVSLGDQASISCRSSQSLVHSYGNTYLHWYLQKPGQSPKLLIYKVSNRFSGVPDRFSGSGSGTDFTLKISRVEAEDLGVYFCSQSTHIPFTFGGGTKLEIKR; -1.30
5. S009-F8-13.8 (antibody, human IgG1, kappa, V domains shown) VH: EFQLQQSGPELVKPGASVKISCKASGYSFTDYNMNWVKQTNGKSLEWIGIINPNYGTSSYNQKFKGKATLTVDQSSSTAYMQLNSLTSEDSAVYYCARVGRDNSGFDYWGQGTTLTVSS VL: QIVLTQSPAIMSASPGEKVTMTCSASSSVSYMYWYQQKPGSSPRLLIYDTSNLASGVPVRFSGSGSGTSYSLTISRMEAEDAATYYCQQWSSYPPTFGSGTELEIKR; -1.30
6. S009-F8-24.14 (antibody, human IgG1, kappa, V domains shown) VH: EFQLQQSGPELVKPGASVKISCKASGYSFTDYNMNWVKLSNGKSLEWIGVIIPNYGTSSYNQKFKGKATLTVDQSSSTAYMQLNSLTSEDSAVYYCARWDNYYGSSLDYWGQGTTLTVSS VL: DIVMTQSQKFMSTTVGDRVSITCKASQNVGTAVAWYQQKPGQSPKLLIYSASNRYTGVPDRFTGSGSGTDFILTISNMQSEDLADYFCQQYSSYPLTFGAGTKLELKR; -1.30
7. S009-F8-31.22 (antibody, human IgG1, kappa, V domains shown) VH: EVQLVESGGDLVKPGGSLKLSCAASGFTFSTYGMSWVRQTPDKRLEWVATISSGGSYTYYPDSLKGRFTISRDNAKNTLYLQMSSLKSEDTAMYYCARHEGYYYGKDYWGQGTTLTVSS VL: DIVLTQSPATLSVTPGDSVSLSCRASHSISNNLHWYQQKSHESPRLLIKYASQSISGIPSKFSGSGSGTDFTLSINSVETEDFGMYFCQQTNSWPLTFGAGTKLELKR; -1.15
8. S009-F8-18.9 (antibody, human IgG1, kappa, V domains shown) VH: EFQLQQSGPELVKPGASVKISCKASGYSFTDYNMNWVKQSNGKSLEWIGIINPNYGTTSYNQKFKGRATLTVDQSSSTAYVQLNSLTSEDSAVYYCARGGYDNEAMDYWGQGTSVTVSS VL: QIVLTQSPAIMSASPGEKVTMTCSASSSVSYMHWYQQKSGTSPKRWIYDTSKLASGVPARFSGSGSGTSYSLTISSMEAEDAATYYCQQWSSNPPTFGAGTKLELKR; -1.22
9. S009-F8-28.23 (antibody, human IgG1, kappa, V domains shown) VH: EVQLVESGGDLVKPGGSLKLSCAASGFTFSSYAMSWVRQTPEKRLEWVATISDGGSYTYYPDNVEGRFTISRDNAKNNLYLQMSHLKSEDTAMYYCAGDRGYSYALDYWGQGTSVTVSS VL: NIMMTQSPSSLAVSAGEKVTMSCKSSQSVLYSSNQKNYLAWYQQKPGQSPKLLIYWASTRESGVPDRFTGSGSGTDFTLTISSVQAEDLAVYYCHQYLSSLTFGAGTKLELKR; -1.30
10. S009-F8-8.22 (antibody, human IgG1, kappa, V domains shown) VH: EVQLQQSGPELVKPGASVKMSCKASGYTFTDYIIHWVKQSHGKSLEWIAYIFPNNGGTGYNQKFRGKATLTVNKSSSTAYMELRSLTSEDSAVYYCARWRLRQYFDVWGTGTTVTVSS VL: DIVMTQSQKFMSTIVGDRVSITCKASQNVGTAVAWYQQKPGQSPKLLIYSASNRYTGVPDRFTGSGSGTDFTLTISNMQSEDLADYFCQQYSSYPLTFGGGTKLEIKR; -1.10
